# pIC50 values compiled below
- system tested: human recombinant P2X7 receptor (Homo sapiens, UniProt Q99572)
- Construct: expressed in transfected cells
- Sequence (Q99572 whole entry): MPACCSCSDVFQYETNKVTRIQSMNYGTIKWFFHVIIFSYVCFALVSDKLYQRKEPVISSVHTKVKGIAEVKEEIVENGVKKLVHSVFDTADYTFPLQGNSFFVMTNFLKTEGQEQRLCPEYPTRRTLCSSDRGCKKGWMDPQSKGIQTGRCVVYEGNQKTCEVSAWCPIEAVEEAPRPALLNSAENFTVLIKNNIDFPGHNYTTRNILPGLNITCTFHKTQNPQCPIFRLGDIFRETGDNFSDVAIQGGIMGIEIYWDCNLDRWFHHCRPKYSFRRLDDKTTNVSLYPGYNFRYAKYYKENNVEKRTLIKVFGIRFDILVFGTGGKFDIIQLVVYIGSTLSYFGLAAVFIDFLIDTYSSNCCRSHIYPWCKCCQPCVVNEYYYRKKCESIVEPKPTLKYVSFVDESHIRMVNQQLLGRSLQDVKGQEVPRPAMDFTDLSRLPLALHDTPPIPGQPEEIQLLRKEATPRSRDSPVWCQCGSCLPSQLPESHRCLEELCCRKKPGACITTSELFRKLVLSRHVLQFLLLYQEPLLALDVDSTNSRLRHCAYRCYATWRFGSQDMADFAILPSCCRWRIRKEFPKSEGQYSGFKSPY
- experiment: YO-PRO assay: P2X7 receptor antagonistic activity in HEK cells stably expressing P2X7
- Type: cell-based
- experimental context: antagonistic activity with respect to the P2X7 receptor, read-out: IC50
pIC50: −log10 of the molar value. Where a name gives a salt, the structure may show the parent alone.
attribute measured: pIC50

| compound | system tested | number |
| --- | --- | --- |
| Cc1ncc(C(CNC(=O)c2ccc3[nH]ccc3c2Cl)NCC(C)C)cn1 (racemic) | human recombinant P2X7 receptor (Homo sapiens, UniProt Q99572) | 6.52 |
| O=C(NCC(c1cccnc1)C1CCNCC1)c1ccc2[nH]ccc2c1Cl (racemic) [Example 20, dihydrochloride] | human recombinant P2X7 receptor (Homo sapiens, UniProt Q99572) | 6.35 |
| O=C(NCC(c1cccc(F)c1)N1CCCCC1)c1ccc2[nH]ccc2c1Cl (racemic) | human recombinant P2X7 receptor (Homo sapiens, UniProt Q99572) | 6.79 |
| Cc1ncc(C(CNC(=O)c2cc(CC(C)C)c3[nH]ccc3c2Cl)N2CCOCC2)cn1 (racemic) | human recombinant P2X7 receptor (Homo sapiens, UniProt Q99572) | 8.00 |
